- Assay System: BAZ2B (Homo sapiens)
- Sequence (Q9UIF8 2060-2164 limits assumed): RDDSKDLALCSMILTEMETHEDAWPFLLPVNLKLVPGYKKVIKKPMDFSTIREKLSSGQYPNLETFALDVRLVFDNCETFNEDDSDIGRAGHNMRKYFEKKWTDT
- Test Details: BROMOscan ligand-binding assay
- Reported Conditions: BROMOscan Gene Symbol BAZ2B
pKd: −log10 of the molar value.
Property Name: pKd

Cc1noc(C)c1-c1ccc2c(c1)nc(CCc1ccccc1)n2CCN1CCOCC1 [CBP30-298] :: < 4.30

// moving on: another record for pKd
Any idea what pKd was measured for COc1ccc(CCc2nc3cc(-c4c(C)noc4C)ccc3n2CCN2CCOCC2)cc1 [CBP30-383] ?
< 4.30

###

- Assay System: TRIM24(PHD,BRD) (Homo sapiens, UniProt O15164)
- Sequence (O15164 824-1006 limits assumed): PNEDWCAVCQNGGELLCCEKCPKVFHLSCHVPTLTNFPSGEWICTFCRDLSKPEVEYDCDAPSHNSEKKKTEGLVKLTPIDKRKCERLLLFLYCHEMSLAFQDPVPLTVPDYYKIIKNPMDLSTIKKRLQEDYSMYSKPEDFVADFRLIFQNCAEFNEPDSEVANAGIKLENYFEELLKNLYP
- Test Details: BROMOscan ligand-binding assay
- Reported Conditions: KD (BROMOscan), sheet prints no unit (nM)
Property Name: Kd

Requested read-out: Kd. Entry: O=C(C=CN1CC2CC1CN2c1ccccn1)c1ccccc1O (stereo not shown)
> 30000 nM

###

- Assay System: WDR9(2) (Homo sapiens)
- Sequence (Q9NSI6 1313-1418 limits assumed): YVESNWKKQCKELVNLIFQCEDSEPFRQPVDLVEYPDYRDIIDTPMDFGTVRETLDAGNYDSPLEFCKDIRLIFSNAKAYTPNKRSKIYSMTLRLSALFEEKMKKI
- Test Details: BROMOscan ligand-binding assay
- Reported Conditions: read-out: KD (BROMOscan); sheet prints no unit (nM)
Property Name: Kd

Test system WDR9(2) (Homo sapiens); read-out Kd; what value for COc1cc2c(cc1NS(=O)(=O)c1ccc(Br)cc1C)n(C)c(=O)n2C ?
> 30000 nM

###

- Assay System: BRDT(2) (Homo sapiens)
- Test Details: BROMOscan ligand-binding assay
- Reported Conditions: BROMOscan Gene Symbol BRDT(2)
Property Name: Kd (µM)
Numbers only, in µM.

COc1ccc(CCc2nc3cc(-c4c(C)noc4C)ccc3n2CCN2CCOCC2)cc1 [CBP30-383] :: 18

From here, focus on the item given below.
BRDT(2) (Homo sapiens) / Kd / Cc1noc(C)c1-c1ccc2c(c1)nc(CCc1ccccc1)n2CCN1CCOCC1 [CBP30-298] : value?
6.8

###

- Assay System: FALZ (Homo sapiens)
- Test Details: BROMOscan ligand-binding assay
- Reported Conditions: KD, BROMOscan Gene Symbol FALZ
Property Name: Kd (µM)
One number for each entry, in µM.

What measured Kd goes with CCCOc1ccn2c(C(C)=O)cc(-c3ccccc3S(C)(=O)=O)c2c1 ?
95

###

Record form. Attribute: pKd. Fill in for each entry.
- Assay System: EP300 (Homo sapiens, UniProt Q09472)
- Sequence (Q09472 1049-1156 limits assumed): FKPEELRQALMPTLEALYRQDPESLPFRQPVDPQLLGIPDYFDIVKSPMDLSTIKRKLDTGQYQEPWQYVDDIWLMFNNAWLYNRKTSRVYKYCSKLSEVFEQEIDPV
- Test Details: BROMOscan ligand-binding assay
- Reported Conditions: BROMOscan, EP300
pKd: −log10 of the molar value.

Cc1cc(=O)n(C)c2cc(N3C(=O)CC[C@H](NS(=O)(=O)CC(C)C)[C@H]3c3ccc(Cl)cc3)ccc12 [LP-99] :: < 4.30

Recorded pKd for O=C(C=CN1[C@H]2CC[C@@H]1c1ncnc(NC3CC3)c1C2)c1ccccc1O [PFI-3 D1] with EP300 (Homo sapiens, UniProt Q09472), please?
< 4.52

###

- Assay System: GCN5L2 (Homo sapiens, UniProt Q92830)
- Sequence (Q92830 whole entry, species assumed): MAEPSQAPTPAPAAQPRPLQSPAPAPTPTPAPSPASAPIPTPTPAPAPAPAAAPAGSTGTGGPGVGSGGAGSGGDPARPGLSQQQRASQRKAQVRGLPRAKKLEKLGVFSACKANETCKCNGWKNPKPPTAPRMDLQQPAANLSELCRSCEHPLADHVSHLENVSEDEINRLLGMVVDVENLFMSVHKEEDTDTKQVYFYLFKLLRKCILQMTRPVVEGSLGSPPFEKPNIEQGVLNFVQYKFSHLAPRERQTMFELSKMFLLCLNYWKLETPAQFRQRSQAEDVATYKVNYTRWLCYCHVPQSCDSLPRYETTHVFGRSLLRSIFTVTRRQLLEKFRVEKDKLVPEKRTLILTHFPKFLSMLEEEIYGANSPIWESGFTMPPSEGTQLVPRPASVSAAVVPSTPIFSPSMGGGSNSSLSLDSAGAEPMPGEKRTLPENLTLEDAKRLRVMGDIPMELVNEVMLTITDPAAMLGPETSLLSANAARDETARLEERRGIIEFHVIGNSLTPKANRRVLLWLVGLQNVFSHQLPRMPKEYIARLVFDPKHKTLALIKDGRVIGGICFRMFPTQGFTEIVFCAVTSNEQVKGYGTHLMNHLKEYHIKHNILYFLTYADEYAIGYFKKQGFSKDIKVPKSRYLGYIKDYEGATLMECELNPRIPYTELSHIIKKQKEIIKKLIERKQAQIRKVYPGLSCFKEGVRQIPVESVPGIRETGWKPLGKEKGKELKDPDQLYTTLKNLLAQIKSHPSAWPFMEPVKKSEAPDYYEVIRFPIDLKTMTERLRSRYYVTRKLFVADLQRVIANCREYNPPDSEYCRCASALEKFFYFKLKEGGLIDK
- Test Details: Histone acetyltransferase (HAT) activity assay;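 also: selectivity screen of BRD probe compounds across a panel of histone acetyltransferases, HAT activity in % with compound at 1 or 10 µM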
- Type: biochemical
- Reported Conditions: 1µM
For each of the compounds below, state its HATs Activity (%).
Give bare numbers, in %.

COc1cc(C#N)ccc1S(=O)(=O)Nc1ccc2c(c1)cc(C)c(=O)n2C :: 100
COc1ccccc1S(=O)(=O)Nc1ccc2c(c1)CN(C)C(=O)N2 :: 96

For every item in the list below, what is its measured HATs Activity (%)?
1. COc1cc2c(cc1NS(=O)(=O)c1ccc(Br)cc1C)n(C)c(=O)n2C
2. COc1ccccc1C(=O)Nc1cc2c(cc1N1CCNC[C@H]1C)n(C)c(=O)n2C
3. CCn1cc(-c2cccc(C(F)(F)F)c2)c2sc(C(=N)NC3CCS(=O)(=O)CC3)cc2c1=O

1: 98; 2: 107; 3: 104

Which HATs Activity (%) value is on record for Cc1cc(=O)n(C)c2cc(N3C(=O)CC[C@H](NS(=O)(=O)CC(C)C)[C@H]3c3ccc(Cl)cc3)ccc12 ?
92
